The measurements presented in this section are drawn from ChEMBL document CHEMBL2029267.

Sequence of the target: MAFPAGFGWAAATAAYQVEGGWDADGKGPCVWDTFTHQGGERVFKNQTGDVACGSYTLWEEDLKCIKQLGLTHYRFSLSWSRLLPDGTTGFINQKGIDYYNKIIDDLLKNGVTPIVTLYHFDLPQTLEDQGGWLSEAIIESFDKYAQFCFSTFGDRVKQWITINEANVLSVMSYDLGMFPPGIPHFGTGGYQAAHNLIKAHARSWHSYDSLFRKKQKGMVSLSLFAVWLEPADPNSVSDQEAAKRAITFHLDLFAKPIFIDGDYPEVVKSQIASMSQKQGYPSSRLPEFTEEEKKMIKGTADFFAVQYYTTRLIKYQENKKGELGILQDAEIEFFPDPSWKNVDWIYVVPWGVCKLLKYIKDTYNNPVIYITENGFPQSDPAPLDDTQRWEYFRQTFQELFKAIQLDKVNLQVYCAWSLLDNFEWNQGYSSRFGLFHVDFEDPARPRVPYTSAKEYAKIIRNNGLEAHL
Assay endpoint: pIC50
Field pIC50 (float): negative decimal logarithm of the concentration in molar.

Value lookup for pIC50; key = `CCCCCCCCSCC[C@H]1NC[C@@H](O)[C@H](O)[C@H]1O.Cl` 5.70
